Values compiled from patent US20240246942A1.

- tested_on: JNK2 (Homo sapiens)
- Sequence (P45984 whole entry): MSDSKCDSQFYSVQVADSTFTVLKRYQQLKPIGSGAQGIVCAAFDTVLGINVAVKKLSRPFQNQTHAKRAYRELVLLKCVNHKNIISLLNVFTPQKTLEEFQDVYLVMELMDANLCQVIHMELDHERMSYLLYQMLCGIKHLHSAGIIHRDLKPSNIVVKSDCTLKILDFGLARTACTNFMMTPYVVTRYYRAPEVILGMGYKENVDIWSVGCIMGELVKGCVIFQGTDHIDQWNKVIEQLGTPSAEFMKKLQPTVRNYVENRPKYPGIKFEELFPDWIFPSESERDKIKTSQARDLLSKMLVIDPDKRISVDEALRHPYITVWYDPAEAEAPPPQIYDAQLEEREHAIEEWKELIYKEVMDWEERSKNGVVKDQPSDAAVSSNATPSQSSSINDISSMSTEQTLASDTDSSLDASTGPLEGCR
- assay_info: JNK2 homogeneous time-resolved fluorescence enzyme inhibition assay
- Format: biochemical
- study_conditions: isoform selectivity against JNK2
Assign met whenever R: ratio of IC50 values of JNK2 over JNK3 does not fall below 40; assign not met whenever it does.

compound: O=C(Nc1cnn(-c2csc(C(=O)NCC3CCOCC3)c2)c1)Nc1ccccc1Cl [Compound 24]
tested_on: JNK2 (Homo sapiens)
assigned_category: not met

compound: CN1CCC(NC(=O)c2cc(-n3cc(NC(=O)Nc4ccccc4Cl)cn3)cs2)CC1 [Compound 14]
tested_on: JNK2 (Homo sapiens)
assigned_category: not met

compound: O=C(Nc1cnn(-c2csc(C(=O)N[C@@H]3CCOC3)c2)c1)Nc1ccccc1Cl [Compound 16]
tested_on: JNK2 (Homo sapiens)
assigned_category: met

compound: O=C(Nc1cnn(-c2csc(C(=O)NC3CCOCC3)c2)c1)Nc1ccccc1Cl [Compound 15]
tested_on: JNK2 (Homo sapiens)
assigned_category: not met

* * *

Measured IC50 accompanies every entry in the list below.
- tested_on: JNK3α1 (Homo sapiens)
- Sequence (P53779 1-422 isoform P53779-2): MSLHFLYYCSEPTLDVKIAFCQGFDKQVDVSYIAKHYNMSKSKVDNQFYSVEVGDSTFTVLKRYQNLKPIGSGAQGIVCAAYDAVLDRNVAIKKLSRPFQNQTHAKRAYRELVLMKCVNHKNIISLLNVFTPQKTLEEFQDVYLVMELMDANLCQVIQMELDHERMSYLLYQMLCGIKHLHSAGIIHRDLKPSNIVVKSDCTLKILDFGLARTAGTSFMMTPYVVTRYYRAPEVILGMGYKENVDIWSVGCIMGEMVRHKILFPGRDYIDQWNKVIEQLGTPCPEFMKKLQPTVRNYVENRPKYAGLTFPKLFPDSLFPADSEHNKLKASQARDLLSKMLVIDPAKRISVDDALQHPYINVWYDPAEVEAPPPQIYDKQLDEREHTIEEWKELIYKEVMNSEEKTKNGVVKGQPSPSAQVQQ
- Type: biochemical
- study_conditions: mean of ≥2 experiments; read-out: Biochemical inhibition IC50 JNK3
readout_type: IC50 (nM)

compound: O=C(Nc1cnn(-c2csc(C(=O)NC[C@H]3CCOC3)c2)c1)Nc1ccccc1Cl [Compound 22]
value_units: nM
endpoint_result: 71
//
compound: O=C(Nc1cnn(-c2csc(C(=O)NC3CC3)c2)c1)Nc1ccccc1Cl [Compound 8]
value_units: nM
endpoint_result: 80
//
compound: CN1CCC[C@H]1CNC(=O)c1cc(-n2cc(NC(=O)Nc3ccccc3Cl)cn2)cs1 [Compound 23]
value_units: nM
endpoint_result: 85
//
compound: CN1CC[C@@H](NC(=O)c2cc(-n3cc(NC(=O)Nc4ccccc4Cl)cn3)cs2)C1 [Compound 10]
value_units: nM
endpoint_result: 85
//
compound: CN1CCC(NC(=O)c2cc(-n3cc(NC(=O)Nc4ccccc4Cl)cn3)cs2)CC1 [Compound 14]
value_units: nM
endpoint_result: 84
//
compound: CN1CCC(CNC(=O)c2cc(-n3cc(NC(=O)Nc4ccccc4Cl)cn3)cs2)CC1 [Compound 19]
value_units: nM
endpoint_result: 142
//
compound: O=C(Nc1cnn(-c2csc(C(=O)N[C@@H]3CCNC3)c2)c1)Nc1ccccc1Cl [Compound 9]
value_units: nM
endpoint_result: 132
//
compound: [2H]C([2H])([2H])N1CC[C@@H](NC(=O)c2cc(-n3cc(NC(=O)Nc4ccccc4Cl)cn3)cs2)C1 [Compound 11]
value_units: nM
endpoint_result: 83
